Data origin, for the record: patent US12679855B2

Test system: D502 glioma cell line (ENO1-heterozygously deleted)
Test: Enolase inhibitor sensitivity (crystal violet), ENO1-heterozygously deleted D502 cells
Type: cell-based
Settings: DMEM 10% FBS, terminal cell density by crystal violet after 7 days
recorded.metric: IC50 (µM)
Number only, in µM; omit the unit.

Inquiry: Could you tell me which IC50 is on file for CC(C)(C)C(=O)OCOP(=O)(OCOC(=O)C(C)(C)C)C1CCCN(O)C1=O (centres unmarked) ?
Reply text: 0.082

Next:
Inquiry: Could you tell me which IC50 is on file for O=C1C(P(=O)(O)O)CCCN1O (centres unmarked) ?
Reply text: 28.8

###

Test system: D423 (ENO1-deleted) glioma cells
Experiment: Cell proliferation assay (crystal violet) in ENO1-deleted glioma cells
Type: cell-based
Details: Glioma cell, 144 h, 6 days, starting concentration 1 μM, crystal violet (FIG. 7); read-out: IC50 towards D423 cells
recorded.metric: IC50 (nM)
Number only, in nM; omit the unit.

Inquiry: Could you tell me which IC50 is on file for CC(C)(C)C(=O)OCOP(=O)(NCc1ccccc1)C1CCCN(O)C1=O (stereo not shown) ?
Reply text: 63
